Please find below IC50 measurements for Lysine-specific demethylase 4C (Homo sapiens, UniProt Q9H3R0), combined from several publications.

[O-][n+]1nn(-c2ccccc2)c(CO)c1Cl	> 200 µM
CCCCN(C)CCCCC(=O)N(O)CCC(=O)O	55 µM
Nc1cn(-c2ccccc2)nn1	> 200 µM
Cc1ccc(-n2nc(C(=O)c3ccccc3)c(O)c2C)cc1	> 200 µM
[O-][n+]1nn(-c2ccccc2)c(Cl)c1Br	> 200 µM
O=C(O)c1ccnc(-n2nccc2-c2ccc(F)cc2F)c1	0.38 µM

Inquiry: Enter IC50 (test system Lysine-specific demethylase 4C (Homo sapiens, UniProt Q9H3R0)) for `c1cn[nH]c1`
Reply text: > 200 µM

Inquiry: State the measured IC50 (Lysine-specific demethylase 4C (Homo sapiens, UniProt Q9H3R0)) of `O=c1[nH]c(C(F)(F)F)nc2cnccc12`
Reply text: 1.9 µM
